- Tested on: L1210 leukemia ip in BDF1 mice, survival T/C
- test method notes: NCI In Vivo Anticancer Drug Screen. Data for tumor model L1210 Leukemia (intraperitoneal) in B6D2F1 (BDF1) mice
- condition info: endpoint: mean survival time; dose: 200.0 mg/kg/injection; schedule: Q01DX009 (ip); vehicle: saline with Tween-80; higher = longer survival
Inconclusive results and toxic doses are left out.
quantity: T/C

The examples below pair each entry with its known result.
T/C measured on "Cc1ccc(NC(=O)CC#N)c(C)c1" = 113 % of control

T/C measured on "COc1ccc(CN(C)N=Nc2ccc(C#N)cc2)cc1" = 119 % of control

New cases:
T/C measured on "CCOc1nc(S(=O)(=O)CC)ncc1C" = 104 % of control

T/C measured on Cc1ccc(C(=O)C(Br)C(Br)c2ccccc2)cc1 (stereo unspecified) = 89 % of control

T/C measured on "CC(C)COC(=O)c1ccc(NC(=O)Nc2ccccc2)cc1" = 88 % of control

T/C measured on O=S1(=O)CC(Cl)C(I)C1 (stereo unspecified) = 109 % of control

T/C measured on "CC(=O)N(C(C)=O)c1ccccc1" = 107 % of control

T/C measured on CCN(CC)CCCC(C)NC(=O)c1ccc(Cl)nc1 (stereo unspecified) = 95 % of control
